protocolSummary: in vitro
Label key: y means CC50 at 6 h under 40 µM; n means CC50 at 6 h of 40 µM or more.

Illustrative cases are given below, each with its answer.
OC1(c2ccccc2)CCN(CCCC2(c3ccc(F)cc3)OCCO2)CC1 [UCSF28] | n
O=C(c1ccc(N2CCC(O)(c3ccc(Cl)cc3)CC2)cc1)C1CC1 [UCSF81] | n
O=C(C=C(CN1CCC(O)(c2ccc(Cl)cc2)CC1)SCCO)c1ccccc1 [UCSF178] | n
OC1(c2ccc(Cl)cc2)CCN(CCCC2(c3ccc(F)cc3)SCc3cccc(c3)CS2)CC1 [UCSF21] | n
OC1(c2ccc(Cl)cc2)CCN(CCCC2(c3ccc(F)cc3)SCc3ccccc3CS2)CC1 [UCSF18] | y

Lab note: confirm whether the reported CC50 at 6 h for this compound is below 40 µM, equality not counting. compound: OC1(C#CC2(c3ccccc3)CO2)CCN(Cc2ccccc2)CC1 (centres unmarked) [UCSF70]
n

Lab note: confirm whether the reported CC50 at 6 h for this compound is below 40 µM, equality not counting. compound: OC1(c2ccc(Cl)cc2)CCN(CCCC2(c3ccc(F)cc3)SCCS2)CC1 [UCSF8]
n

Lab note: confirm whether the reported CC50 at 6 h for this compound is below 40 µM, equality not counting. compound: C[C@@H]1SC(CCCN2CCC(O)(c3ccc(Cl)cc3)CC2)(c2ccc(F)cc2)S[C@H]1C (relative stereo) [UCSF12]
y

Lab note: confirm whether the reported CC50 at 6 h for this compound is below 40 µM, equality not counting. compound: OC1(c2ccc(Cl)cc2)CCN(CCCC2(c3ccc(F)cc3)SCCCCS2)CC1 [UCSF23]
y

Lab note: confirm whether the reported CC50 at 6 h for this compound is below 40 µM, equality not counting. compound: OC1(c2ccc(Cl)cc2)CCN(CCCC2(c3ccccc3)OCCO2)CC1 [UCSF49]
n

Lab note: confirm whether the reported CC50 at 6 h for this compound is below 40 µM, equality not counting. compound: OC1(c2ccc(Cl)cc2)CCN(CCCC2(c3ccc(F)cc3)OCCS2)CC1 (centres unmarked) [UCSF78]
y

Lab note: confirm whether the reported CC50 at 6 h for this compound is below 40 µM, equality not counting. compound: OC1(CCCCc2ccccc2)CCC(O)(c2ccc(Cl)cc2)CC1 (centres unmarked) [UCSF54]
n

Lab note: confirm whether the reported CC50 at 6 h for this compound is below 40 µM, equality not counting. compound: C=C(CCCN1CCC(O)(c2ccc(Cl)cc2)CC1)c1ccc(F)cc1 [UCSF37]
n

Lab note: confirm whether the reported CC50 at 6 h for this compound is below 40 µM, equality not counting. compound: OC1(c2ccc(Cl)cc2)CCN(CCCC2(c3ccc(F)cc3)SCc3ccc(cc3)CS2)CC1 [UCSF22]
n

Lab note: confirm whether the reported CC50 at 6 h for this compound is below 40 µM, equality not counting. compound: O=C(CCCC1(O)CCC(O)(c2ccc(Cl)cc2)CC1)c1ccc(F)cc1 (centres unmarked) [UCSF65]
n

Lab note: confirm whether the reported CC50 at 6 h for this compound is below 40 µM, equality not counting. compound: OC1(c2ccc(Cl)cc2)CCN(CCCC(O)(c2ccccc2)c2ccc(F)cc2)CC1 (centres unmarked) [UCSF24]
y
